Experiment: NCI Yeast Anticancer Drug Screen. Data for the cln2 rad14 strain (AID 165);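 also: 0% = growth equal to vehicle treated cultures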
Settings: S. cerevisiae cln2 rad14 strain, hits give high values; at 50.0 µM unless noted
This is part of a sample that, as a whole, favours compounds with a hit. Of some 79,000 tested, about 15% had one in any assay.
The entries below are paired with their reported growth inhibition.
Write the answer as a number in %, unit excluded.

Query: Requested read-out: growth inhibition. Entry: CN(C)C[C@@H]1C2C=CC(C2)[C@@H]1CO (some centres undefined)
Response: 4.95

Others:
Query: Requested read-out: growth inhibition. Entry: S=c1c2[nH]cnc2ncn1CCSC1=NC=NC2=NC=NC21 (centres undefined)
Response: -22.8

Query: Note, next up: COc1cc(CC(C(=O)O)C(C)C(=O)c2ccc3c(c2)OCO3)cc(OC)c1OC (centres undefined)
Response: -24.6

Query: Note, next up: CCCCCCCCCOCC(=O)O
Response: 3.15

Query: Note, next up: O=C(CC1SC(=Nc2ccccc2Cl)NC1=O)Nc1ccc(Cl)cc1Cl (centres undefined)
Response: 17.7

Query: Note, next up: CC(C)C(C(N)=O)(C(=O)O)C(C)C
Response: 5.2

Query: Note, next up: Cc1ccc(C(CC(=O)C(C)(C)CN2CCCCC2)SCCS(=O)(=O)O)cc1 (centres undefined)
Response: 9.4

Query: Note, next up: CCC(=O)C(C)=O
Response: -4

Query: Note, next up: O=C1C=CC(=Nc2ccc3c(c2)-c2ccccc2C3)O1
Response: -9.9

Query: Note, next up: COc1ccc(O)cc1C=O
Response: 4

Query: Note, next up: CCc1ccc2c(c1)C(=O)c1ccccc1C2=O
Response: -9.5

Query: Note, next up: O=C(O)/C=C1\NC(=O)NC1=O
Response: 6.1

Query: Note, next up: N#CC1(c2ccccc2)CCC1
Response: 16.6

Query: Note, next up: CC/C(CC(=O)CCC(=O)Nc1ccc(C)c(C)c1)=N\NC(=O)c1cc2ccccc2cc1O
Response: -5.2

Data provenance is PubChem BioAssay (NCI).
